These data points were gathered from ChEMBL document CHEMBL1128008.

- Measurement protocol: Plasma half life in dog
- Format: ADME, organism-based, Canis lupus familiaris
Property: half-life (h)
State just the number; it will be interpreted in h.

# input Entry under review: "COc1cc([C@H]2c3cc4c(cc3[C@@H](O[C@@H]3O[C@H]5CO[C@@H](C)O[C@H]5[C@H](O)[C@@H]3O)[C@H]3COC(=O)[C@H]23)OCO4)cc(OC)c1OP(=O)([O-])[O-].[Na+].[Na+]" . Reported half-life?
# output 2.07

###

- Measurement protocol: Plasma half life in human
- Format: ADME, cell-free
Property: half-life (min)
# output: bare number, implied unit min

# input What does the record list as half-life for "COc1cc([C@H]2c3cc4c(cc3[C@@H](O[C@@H]3O[C@H]5CO[C@@H](C)O[C@H]5[C@H](O)[C@@H]3O)[C@H]3COC(=O)[C@H]23)OCO4)cc(OC)c1OP(=O)([O-])[O-].[Na+].[Na+]" ?
# output 45
